Tested on: L1210 leukemia ip in BDF1 mice, survival T/C
Test: NCI In Vivo Anticancer Drug Screen. Data for tumor model L1210 Leukemia (intraperitoneal) in B6D2F1 (BDF1) mice
Settings: endpoint: mean survival time; dose: 200.0 mg/kg/injection; schedule: Q04DX002 (ip); vehicle: Klucel (hydroxypropylcellulose) (HPC); higher = longer survival
Description: The antitumor activity of compounds was measured in mice bearing transplantable tumors. Survival or tumor size were measured and the results are expressed as the measurement made in the treated group (T) divided by the measurement made in the vehicle treated control group (C). The tumor model used in this assay is L1210 Leukemia (intraperitoneal) in B6D2F1 (BDF1) mice
Toxic doses and inconclusive results are not listed.
endpoint-label: T/C

>>> print(df.to_string())
                                    compound   measured_result
 0               O=C(O)c1ccccc1N=Cc1ccc[nH]1  100 % of control
 1                       Cc1nc(-c2ccccc2)no1  102 % of control
 2            CC(C)OC(=O)COc1cc(F)c(Cl)cc1Cl   95 % of control
 3                     Nc1ncc(N=O)c(=O)[nH]1   99 % of control
 4                     O=CN1CCN(c2ccccc2)CC1   87 % of control
 5         CCOc1cccc2c(=O)c(C(=O)O)cn(CC)c12  107 % of control
 6   COc1ccc(-c2cc3c(OC)ccc(OC)c3[nH]2)cc1OC   93 % of control
 7                    CCOC(=O)CNc1cccc(C)c1C  102 % of control
 8        CC1(c2ccc3ccccc3c2)OCC2(CCCCC2)CO1  100 % of control
 9         Cc1ccc(N(C)CC#CCOc2ccc(Br)cc2)cc1   99 % of control
10                  Cc1cc(=O)cc(Nc2ccccc2)o1   90 % of control
11  NC1(C(=O)O)CCCC2CCCCC21 (centres undefined)   93 % of control
12                COc1ccc(CC(=S)N2CCOCC2)cc1   95 % of control
13              NC(=O)N1c2ccccc2C=Cc2ccccc21  110 % of control

* * *

Test system: L1210 leukemia ip in BDF1 mice, survival T/C
Experiment: NCI In Vivo Anticancer Drug Screen. Data for tumor model L1210 Leukemia (intraperitoneal) in B6D2F1 (BDF1) mice
Conditions: endpoint: mean survival time; dose: 50.0 mg/kg/injection; schedule: Q01DX009 (ip); vehicle: water; higher = longer survival
Inconclusive results and toxic doses are left out.
The entries below come with measured T/C values attached.
endpoint-label: T/C

                                   molecule   measured_result
0                       CC(=O)NCc1ccc(N)cc1  114 % of control
1  C/C(C/C(C)=N/O)=N/O.C/C(C/C(C)=N/O)=N\O.[Cl][Rh][Cl]   97 % of control
2                              Brc1cnc[nH]1   90 % of control
3  CCN(CC)CCCC(C)NC(=O)c1cccc2c(N)cccc12 (centres undefined)  103 % of control

* * *

Test system: L1210 leukemia ip in BDF1 mice, survival T/C
Experiment: NCI In Vivo Anticancer Drug Screen. Data for tumor model L1210 Leukemia (intraperitoneal) in B6D2F1 (BDF1) mice
Conditions: endpoint: mean survival time; dose: 100.0 mg/kg/injection; schedule: Q04DX002 (ip); vehicle: saline; higher = longer survival
Toxic doses and inconclusive results are not listed.
endpoint-label: T/C

In [3]: df
Out[3]:
                                    compound   measured_result
 0   C[N+](C)(C)CCNC(=O)C12CC3CC(CC(C3)C1)C2   86 % of control
 1  COc1ccc(CC(C)N)cc1OC (stereo unspecified)  105 % of control
 2  O=C1CCOP(=O)(NCCCl)N1CCCl (stereo unspecified)  115 % of control
 3  CCCCCCCCCc1ccc(OC(C)OCCOCCOCC)cc1 (stereo unspecified)   97 % of control
 4                            Cc1nc2ccccc2s1  106 % of control
 5  COC1COC(OC)C(OC)C1OC (stereo unspecified)   90 % of control
 6                                 CC(C)(C)N  101 % of control
 7               CC(C)(C)C(=O)CC(=O)C(C)(C)C  116 % of control
 8  CSC(SC)C(O)C(O)C(O)C(O)CO (stereo unspecified)  113 % of control
 9  Cc1ccc(S(=O)(=O)N(CCCc2c(C)nc(N)nc2N)c2ccccc2)cc1  110 % of control
10       CC(C)CN(OC(=O)c1ccccc1)[N+](=O)[O-]  108 % of control
11  CCC(C)OP(=S)(S)OC(C)CC (stereo unspecified) (tested in a mixture with another compound)   96 % of control
12                       N=C(N)SCCCCCSC(=N)N  110 % of control
13  CC1CCCCC1C(=O)N1CCCC1 (stereo unspecified)  101 % of control
14                                   NC(N)=S  100 % of control
15         CC1OC1C1OC1C (stereo unspecified)  109 % of control

* * *

Test system: L1210 leukemia ip in BDF1 mice, survival T/C
Experiment: NCI In Vivo Anticancer Drug Screen. Data for tumor model L1210 Leukemia (intraperitoneal) in B6D2F1 (BDF1) mice
Settings: endpoint: mean survival time; dose: 400.0 mg/kg/injection; schedule: Q01DX009 (ip); vehicle: saline; higher = longer survival
Inconclusive results and toxic doses are left out.
endpoint-label: T/C

                                    molecule   measured_result
 0                C/C(=N/O)c1c[n+]([O-])ccn1   96 % of control
 1  CCC1C(=O)NC(=O)C1(C)c1ccccc1 (configuration not stated)   86 % of control
 2  O=C1C=C(C2CCCCC2)C(=O)C2CCCCC12 (configuration not stated)   86 % of control
 3  CN(C)S(=O)(=O)c1ccc2c(c1)N(CCCN1CCN(S(C)(=O)=O)CC1)c1ccccc1S2  106 % of control
 4  C=CC(C)(O)CCC1C(=C)C(O)CC2C(C)(C)CCCC12C (configuration not stated)   94 % of control
 5  CCOC(=O)COc1ccc(N2C(N)=NC(N)=NC2(C)C)cc1  104 % of control
 6                            Cc1ccc(O)cc1Cl   95 % of control
 7                       CCCOCNC(=O)c1cccnc1  103 % of control
 8  O=C1OC(CO)C(OC2OC(CO)C(O)C(O)C2O)C(O)C1O (configuration not stated)   97 % of control
 9  O=C(O)CSC(CC(=O)O)C(F)(F)C(F)(F)C(F)(F)F (configuration not stated)  104 % of control
10     COc1cc(/C=N/NC(=O)c2cccnc2)cc(OC)c1OC  103 % of control
11  CC1CCC2(CC1=O)C(C)CC(=O)C2C(C)C (configuration not stated)   98 % of control

* * *

System: L1210 leukemia ip in BDF1 mice, survival T/C
Test: NCI In Vivo Anticancer Drug Screen. Data for tumor model L1210 Leukemia (intraperitoneal) in B6D2F1 (BDF1) mice
Conditions: endpoint: mean survival time; dose: 50.0 mg/kg/injection; schedule: Q01DX001 (ip); vehicle: saline; higher = longer survival
Inconclusive results and toxic doses are left out.
The entries below come with measured T/C values attached.
endpoint-label: T/C

                               sample_smiles  endpoint_label   measured_result
 0  O=c1cc(/C=N\Nc2ccc([N+](=O)[O-])cc2)[nH]c(=O)[nH]1             T/C  106 % of control
 1            O=C/C=C/c1cccc([N+](=O)[O-])c1             T/C  102 % of control
 2               CCOC(=O)c1ccc(NC(=O)CCl)cc1             T/C  106 % of control
 3                 Cc1ccc(C)c(NS(C)(=O)=O)c1             T/C   96 % of control
 4  Cc1ccc(NC(=O)NNC(=O)CCCC(=O)NNC(=O)Nc2ccc(C)cc2)cc1             T/C   96 % of control
 5              CS(=O)(=O)n1c(CCl)nc2ccccc21             T/C   96 % of control
 6                             OCCCc1ccccc1O             T/C  102 % of control
 7            CC(=O)c1cccc(OC(=O)c2ccccc2)c1             T/C  112 % of control
 8                             CCCCCCSC(=N)N             T/C   89 % of control
 9         C(/CCC/C=N/Nc1ccccc1)=N\Nc1ccccc1             T/C  103 % of control
10  Nc1ccc(N=Nc2ccc(C(=O)Nc3ccc4cc(S(=O)(=O)O)ccc4c3)cc2)c(N)c1N=Nc1ccc(N=Nc2ccc(O)c(C(=O)O)c2)cc1             T/C   90 % of control
11  Cc1c(/C=C/[N+](=O)[O-])cc(C)c2c3c(oc12)CCCC3             T/C   98 % of control
12  COc1ccc(CN2CCCN(Cc3ccc(OC)cc3OC)C2c2cccnc2)c(OC)c1             T/C   94 % of control

Value source: PubChem BioAssay AID248
